- assay-system: T1, human PD-L1 (human, UniProt Q9NZQ7 19-238, limits assumed)
- T1 construct: Protein used in the Biacore assays of 3.1
- T1 sequence (Q9NZQ7 19-238 limits assumed): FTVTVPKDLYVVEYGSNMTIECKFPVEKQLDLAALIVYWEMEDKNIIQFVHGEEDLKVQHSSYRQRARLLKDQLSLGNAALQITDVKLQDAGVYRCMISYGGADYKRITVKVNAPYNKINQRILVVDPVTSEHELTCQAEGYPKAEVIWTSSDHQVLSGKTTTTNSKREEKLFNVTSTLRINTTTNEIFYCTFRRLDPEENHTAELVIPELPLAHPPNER
- test-name: Biacore kinetic profile
value-type: log10 of t½ (log10 of the value in h)
Scale: decimal log of t½, t½ in h.

Kindly note the recorded log10 of t½ for A09-213-1 (antibody, human IgG1, lambda, V domains shown, 193V read as I93V; also called VH-M31I, M35F, S63T, 193V) VH: EVQLLESGGGLVQPGGSLRLSCAASGFTFSIYMMFWVRQAPGKGLEWVSSIYPSGGITFYADTVKGRFTISRDNSKNTLYLQMNSLRAEDTAVYYCARIKLGTVTTVDYWGQGTLVTVSS VL: QSALTQPASVSGSPGQSITISCTGTSSDVGAYNYVSWYQQHPGKAPKLMIYDVSNRPSGVSNRFSGSKSGNTASLTISGLQAEDEADYYCSSYTSSSTRVFGTGTKVTVLG , which is -0.34

Kindly note the recorded log10 of t½ for A09-212-1 (antibody, human IgG1, lambda, V domains shown, 193V read as I93V; also called VH-M33I, M35F, S63T, 193V) VH: EVQLLESGGGLVQPGGSLRLSCAASGFTFSMYIMFWVRQAPGKGLEWVSSIYPSGGITFYADTVKGRFTISRDNSKNTLYLQMNSLRAEDTAVYYCARIKLGTVTTVDYWGQGTLVTVSS VL: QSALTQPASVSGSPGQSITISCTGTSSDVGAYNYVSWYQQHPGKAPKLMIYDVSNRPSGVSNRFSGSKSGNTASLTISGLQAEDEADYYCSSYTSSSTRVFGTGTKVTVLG , which is 0.63

Kindly note the recorded log10 of t½ for A09-223-1 (antibody, human IgG1, lambda, V domains shown, also called VH-M31S, M35F, S63T, I93V) VH: EVQLLESGGGLVQPGGSLRLSCAASGFTFSSYMMFWVRQAPGKGLEWVSSIYPSGGITFYADTVKGRFTISRDNSKNTLYLQMNSLRAEDTAVYYCARIKLGTVTTVDYWGQGTLVTVSS VL: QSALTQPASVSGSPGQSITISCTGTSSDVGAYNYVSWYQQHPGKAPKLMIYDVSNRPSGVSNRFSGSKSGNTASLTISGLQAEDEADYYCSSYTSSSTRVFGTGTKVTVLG , which is -0.65

Kindly note the recorded log10 of t½ for A09-240-2 (antibody, human IgG1, lambda, V domains shown, also called VL-A31G; VH-M33I, M35F, S63T, I93V) VH: EVQLLESGGGLVQPGGSLRLSCAASGFTFSMYIMFWVRQAPGKGLEWVSSIYPSGGITFYADTVKGRFTISRDNSKNTLYLQMNSLRAEDTAVYYCARIKLGTVTTVDYWGQGTLVTVSS VL: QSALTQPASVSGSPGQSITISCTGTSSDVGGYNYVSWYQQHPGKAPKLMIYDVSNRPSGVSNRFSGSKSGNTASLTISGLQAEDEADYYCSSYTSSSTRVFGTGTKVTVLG , which is 0.61

Kindly note the recorded log10 of t½ for A09-241-2 (antibody, human IgG1, lambda, V domains shown, also called VL-A31G; VH-M31I, M33I, S63T, I93V) VH: EVQLLESGGGLVQPGGSLRLSCAASGFTFSIYIMMWVRQAPGKGLEWVSSIYPSGGITFYADTVKGRFTISRDNSKNTLYLQMNSLRAEDTAVYYCARIKLGTVTTVDYWGQGTLVTVSS VL: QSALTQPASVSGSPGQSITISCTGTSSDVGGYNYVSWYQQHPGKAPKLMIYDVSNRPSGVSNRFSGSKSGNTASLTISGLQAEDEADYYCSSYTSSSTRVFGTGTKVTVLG , which is 0.44

Kindly note the recorded log10 of t½ for A09-204-1 (antibody, human IgG1, lambda, V domains shown, positions counted from the N-terminus of the chain; also called VH-M31I, M33I, M35F, S63T, I93V) VH: EVQLLESGGGLVQPGGSLRLSCAASGFTFSIYIMFWVRQAPGKGLEWVSSIYPSGGITFYADTVKGRFTISRDNSKNTLYLQMNSLRAEDTAVYYCARIKLGTVTTVDYWGQGTLVTVSS VL: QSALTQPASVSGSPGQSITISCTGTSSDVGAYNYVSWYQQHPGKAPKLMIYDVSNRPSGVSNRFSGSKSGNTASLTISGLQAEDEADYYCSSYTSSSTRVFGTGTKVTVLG , which is 0.98

Kindly note the recorded log10 of t½ for A09-248-2 (antibody, human IgG1, lambda, V domains shown, also called VL-A31G; VH-M31I, M33I, M35F, S63T, I93V) VH: EVQLLESGGGLVQPGGSLRLSCAASGFTFSIYIMFWVRQAPGKGLEWVSSIYPSGGITFYADTVKGRFTISRDNSKNTLYLQMNSLRAEDTAVYYCARIKLGTVTTVDYWGQGTLVTVSS VL: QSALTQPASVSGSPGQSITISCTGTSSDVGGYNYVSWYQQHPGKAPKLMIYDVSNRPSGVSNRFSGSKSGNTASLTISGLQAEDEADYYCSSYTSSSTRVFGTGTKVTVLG , which is 0.86

Kindly note the recorded log10 of t½ for A09-211-1 (antibody, human IgG1, lambda, V domains shown, 193V read as I93V; also called VH-M31I, M33L, M35F, S63T, 193V) VH: EVQLLESGGGLVQPGGSLRLSCAASGFTFSIYLMFWVRQAPGKGLEWVSSIYPSGGITFYADTVKGRFTISRDNSKNTLYLQMNSLRAEDTAVYYCARIKLGTVTTVDYWGQGTLVTVSS VL: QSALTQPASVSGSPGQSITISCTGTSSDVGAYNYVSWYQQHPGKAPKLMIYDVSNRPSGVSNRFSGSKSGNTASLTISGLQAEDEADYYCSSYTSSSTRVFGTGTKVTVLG , which is 0.26

Kindly note the recorded log10 of t½ for A09-244-2 (antibody, human IgG1, lambda, V domains shown, also called VL-A31G; VH-M31S, M33I, M35F, S63T, I93V) VH: EVQLLESGGGLVQPGGSLRLSCAASGFTFSSYIMFWVRQAPGKGLEWVSSIYPSGGITFYADTVKGRFTISRDNSKNTLYLQMNSLRAEDTAVYYCARIKLGTVTTVDYWGQGTLVTVSS VL: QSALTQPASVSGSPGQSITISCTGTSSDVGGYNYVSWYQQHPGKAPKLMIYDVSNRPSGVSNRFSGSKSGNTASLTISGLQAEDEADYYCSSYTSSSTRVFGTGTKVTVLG , which is 0.67

Kindly note the recorded log10 of t½ for A09-202-1 (antibody, human IgG1, lambda, V domains shown, also called VL-A31G) VH: EVQLLESGGGLVQPGGSLRLSCAASGFTFSMYMMMWVRQAPGKGLEWVSSIYPSGGITFYADSVKGRFTISRDNSKNTLYLQMNSLRAEDTAIYYCARIKLGTVTTVDYWGQGTLVTVSS VL: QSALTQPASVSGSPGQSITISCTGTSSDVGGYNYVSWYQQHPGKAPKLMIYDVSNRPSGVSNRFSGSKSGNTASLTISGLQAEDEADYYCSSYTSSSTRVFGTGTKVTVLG , which is -0.50

Kindly note the recorded log10 of t½ for A09-239-2 (antibody, human IgG1, lambda, V domains shown, also called VL-A31G; VH-M31I, M33L, M35F, S63T, I93V) VH: EVQLLESGGGLVQPGGSLRLSCAASGFTFSIYLMFWVRQAPGKGLEWVSSIYPSGGITFYADTVKGRFTISRDNSKNTLYLQMNSLRAEDTAVYYCARIKLGTVTTVDYWGQGTLVTVSS VL: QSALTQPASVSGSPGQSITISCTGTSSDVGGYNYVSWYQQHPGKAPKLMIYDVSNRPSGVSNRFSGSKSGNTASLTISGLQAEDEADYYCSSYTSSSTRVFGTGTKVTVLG , which is 0.30
